meta.source: paper PMC10397247

- assayed system: T1, 4H570-bA
- T1 chain: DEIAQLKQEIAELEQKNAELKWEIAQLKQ
- procedure text: two-hybrid library CCNG1;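 further: natural log of median RNA to DNA barcode read ratio; higher means stronger binding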
// reported interaction score for each item listed
Reply with just the number.

Answered cases to consult:
DENAQLKQEIAELEQEIAELEWKNAQLKQ [4H1544-bA]    -0.0902
DENAQLEQKIAELKQEIAELEWENAQLKQ [4H1348-bA]    -0.301

*Q* Entry DKNAQLKQEIAELEQKIAELKWKNAQLEQ [4H3631-bA] : reported interaction score = ?
*A* -0.919

*Q* Would you mind doing DKNAQLKQEIAELEQENAELKWKIAQLEQ [4H3613-bA] as well?
*A* -0.148
